test: log P by HPLC (OECD Guideline 117), method [b] neutral range; assay type: physicochemical; conditions: HPLC, method [b] neutral range
measurement label: logP[b]

Previously resolved entries follow.
compound	logP[b]
Cc1cc(F)c(-n2nc(Br)n(C)c2=O)cc1[S+]([O-])CC(F)(F)F (centres unmarked)	1.99
CCOc1nn(-c2ccc(C)c(SCC(F)(F)F)c2)c(=O)n1OC	3.70
CCOc1nn(-c2cc([S+]([O-])CC(F)(F)F)c(C)cc2F)c(=O)n1C (centres unmarked)	2.09
CCn1c(OCC(F)(F)F)nn(-c2cc(SCC(F)(F)F)c(C)cc2F)c1=O	3.79
Cc1ccc(-n2nc(OCC(F)(F)F)n(C3CC3)c2=O)cc1SCC(F)(F)F	4.20

a = Cc1ccc(-n2nc(OCc3ccccc3)n(C)c2=O)cc1[S+]([O-])CC(F)(F)F (centres unmarked)
b = CCc1nn(-c2cc([S+]([O-])CC(F)(F)F)c(C)cc2F)c(=O)n1C1CC1 (racemic)
// query Please let me know which one, a or b , has a lower measured logP[b] value. In your reply, give the label of the chosen option.
// result b
(b: 2.15, a: 3.18)

P = Cc1cc(F)c(-n2nc(Br)n(C3CC3)c2=O)cc1[S+]([O-])CC(F)(F)F (racemic)
Q = Cc1cc(F)c(-n2nc(Oc3ccccc3)n(C)c2=O)cc1SCC(F)(F)F
// query Which one would you say has the larger logP[b] value: P , or Q ? In your reply, give the label of the chosen option.
// result Q
